Assay: yeast display, Sf9 membrane polyspecificity reagent, FACS + sequencing; frameworks hold sequencing errors

- polymer_sequence: "QVQLVESGGGLVQEGGSLRLSCAASGFTFSLNTMGWYRQAPGKERELVAAINSGDSTYADSVKGRFTISRDNAKNTVYLQMNSLKPEDTAVYYCNADPDWWYPYNYWGQGTQVTVSS"
  polyreactivity (PSR sort gate): "low polyreactivity"
- polymer_sequence: "QVQLVESGGGLVQAGGSLRLSCAASGRIFETNAMGWYRQAPGKERELVAVITRGGSTYYADSVKGSFTISRDNAKNTVYLQMNSLKPEVTALYYCNVRRLYGYGYYYWGQGTQVTVSW"
  polyreactivity (PSR sort gate): "low polyreactivity"

----------
Experiment: yeast display, Sf9 membrane polyspecificity reagent, FACS + sequencing; frameworks hold sequencing errors
measured_metric: polyreactivity (PSR sort gate)

Recorded results for 5 sequences are shown here.
- polymer_sequence: "QLQLVESLRGLVQAGGSLRLSCAASVSIIGPNAMGLYRQATGKERELVAAITLSGGSTYYADSVKGRFTISRDNAKNTVYLQMNSLKPEDTAVYYCNADLLPADAPLWVTGGDYWGQGTQVTESS"
  result: "low polyreactivity"
- polymer_sequence: "QVQLVESGGGLVQAGGSLRLSCAASGIIFYEYVMGWYRQAPGKERELVATISSIGGSTYYADSVKGRFTISRDNAKNTVYLQMNSLKPEDTAVYYCAADPDPVVSRGGNWYGDDYWGQGTQVTVSS"
  result: "high polyreactivity"
- polymer_sequence: "QVQLVESGGGLVQAGGSLRLSCAASGRIFTSYVMGWYRQAPGKERELVAAITWGGSTKYADSVKGRFTISRVNAKNTVYLQMNSLKPEDTAVYYCAADGGEYYKGFFAVPYGYWGQGTQVTVSS"
  result: "low polyreactivity"
- polymer_sequence: "QVQLVESGGGLVQAGGSLRLICAASRRTYYSNAMGWYRQAPGKERELVAASTSTDDSTYYADSVKGRFTISRDNAKNTVYLQMNSLKPEDTAVYYCNTDGLIAIRGLWWVEYDYWGQGTQVTVSS"
  result: "low polyreactivity"
- polymer_sequence: "QVQLVESGGGLVQAGGSLRLSCAASGIIFGYYAMGWYRQAPGKERELVAAITSGTSTYYADSVKGRFTISRDNAKNTVYLQMNSLKPEDTAVYYCNIVRRYGDEDSWGQGTQVTVSS"
  result: "high polyreactivity"

Please find the next sequence below.
Ask: Item "QDQLVESGGGLVQAGGSLRLSCAASGFIFYYYAMGWYRPAPGKERELVAAISGSGGSTYYADSVKGRFTISRDNAKNTVYLQMNSLKPEDTAVYYCNARRPGYYVYYFAYDYWGQGTQVTVSS" has what recorded polyreactivity (PSR sort gate)?
Reply: high polyreactivity

----------
Test: yeast display, Sf9 membrane polyspecificity reagent, FACS + sequencing; frameworks hold sequencing errors
measured_metric: polyreactivity (PSR sort gate)

Would you please look over these solved cases?
- polymer_sequence: "QVQLVETGGGLVQAGGSLRLSCAASGRIFVGYAKGWYRQAPGKERELVAAISARGGSTYYADSVKGRFTISRDNAKNTVYLQMNSLKPEDTAVYYCAADEASSRGYYDYDYWGQGTQVTVSS"
  measured_metric: "polyreactivity (PSR sort gate)"
  result: "low polyreactivity"
- polymer_sequence: "QVQLVESGGGLVQAGGSLRLSCAASGRTSIGNAMGWYRQAPGKERELVASISWSGGSTYYADSVKGRFTISRDNAKNTVYLQMNSLKPEDTAVYYCAKTAYFLVFNEHLHKKRYDSWGLGTQVTVSS"
  measured_metric: "polyreactivity (PSR sort gate)"
  result: "low polyreactivity"
- polymer_sequence: "QVQLVESGGGIDQAGGSLRLSCAASGSTFPRYAMGWYRQAPGKERELVAAISRSGGSTYYADSVKWRFTISRDNAKNTVDLQMNCLKPEDTAVYYCAGRYERGSYKYDYWGQGTEVTVSS"
  measured_metric: "polyreactivity (PSR sort gate)"
  result: "high polyreactivity"
- polymer_sequence: "PVQLVESRGRLVQAGGSLRLSCAASGSIFGYNAMGWYRQAPGKERELVAAISYSGASTYYSDSVKGRFTISRDNAKNTVYLQLNSLKPEDTAVYYCAAGWKRFSGRNHYYWGLGTQVTVSS"
  measured_metric: "polyreactivity (PSR sort gate)"
  result: "high polyreactivity"
- polymer_sequence: "QVQLVESGGGLVQAGGSLRLSCAASGSIFRAYAMGWYRQAPGKEGELVATITSGGRTNYADSVKGRFTISRDNAKNTVYLQMNSLKPEDTAVYYCNADHWLYYGAGYDYWGQGTQVTVSS"
  measured_metric: "polyreactivity (PSR sort gate)"
  result: "low polyreactivity"

Ask: Fill in the blank: the reported polyreactivity (PSR sort gate) of "QVQLVESGGGLVQAGGSLRLSCAASGFTFYRYAMGWYRQAPGKERELVAAISRSGGSTSYADSVKGRFTISRDNAKNTLYLQMNSLTPEDTEVYYCATRNWYSLKDYYYWGQGTQVTVSS" is ____.
Reply: high polyreactivity

Ask: // query: "QVQLVESGGGLVQAGGSLRLSCAASGSIFRSNAMGWYRQAAGKERELVAAIDYSGTSTTYADSVKGRFTISRDNAKNTVYLQMNSLKPEDTAVYYCNADGYYRGYWSGYEYWGQGTQVTVSS"
Reply: low polyreactivity

Ask: Try this sequence too: "QVQLVESGGGLVQAGGSLRLSCAASGSTVNFYAMGWYRQAPGKERELVAAISWRGNTYYADSVKGRFTISRDNAKNTVYLQITSLKPEDTAVSYCDAYEWLAYTSAWYGYWGQGTQVTVSS"
Reply: high polyreactivity

Ask: And for "QVQLVESGGGLVQAGGRLRLSCAASGITFLNYAMGWYRPAPRKERELVAAISWSGGRTYYADSVKGRFTISRDNAKNTVFLQMNSLKPEDNAVYYCAADRGVNSYGYWGQGTQVTVSS" ?
Reply: high polyreactivity

Ask: Again, but for "QVQLVESGGGLVQAGGILSLSCAASGIISIYYVMGWYRQAPGKERELVAAITSSGARTYYADSVKGRFTISRDNAKNTVYLQMNSLKPEDTAVYYCAAKAVHLAGYDYWGQGTQVTVSS"
Reply: high polyreactivity
